organism: Rattus norvegicus; assay: Cytotoxicity against Wistar rat primary astrocytes assessed as inhibition of cell viability at 100 uM after 72 hrs by MTT assay; format: toxicity; settings: astrocyte
quantity: Activity

Solved entries (count: 4):
INSERT INTO assay_data (molecule, observed) VALUES
  ('CSc1ccc(C2SCC(=O)N2CCCN2CCCCC2)cc1 (stereo unspecified)', 'Non-Toxic'),
  ('CS(=O)(=O)c1ccc(C2SCC(=O)N2c2ccc3c(c2)OCO3)cc1 (stereo unspecified)', 'Non-Toxic'),
  ('CSc1ccc(C2SCC(=O)N2c2ccc3c(c2)OCO3)cc1 (stereo unspecified)', 'Non-Toxic'),
  ('CSc1ccc(C2SCC(=O)N2c2ccc(SC)cc2)cc1 (stereo unspecified)', 'Non-Toxic');

Supply recorded Activity for CSc1ccc(C2SCC(=O)N2Cc2ccccn2)cc1 (stereo unspecified) here.
Non-Toxic

Return the recorded Activity value; entry: CS(=O)(=O)c1ccc(C2SCC(=O)N2CCN2CCCCC2)cc1 (stereo unspecified)
Non-Toxic

----------
species on record: Rattus norvegicus; assay: Cytotoxicity against Wistar rat primary astrocytes assessed as inhibition of cell viability at 250 uM after 72 hrs by MTT assay; format: toxicity; details: astrocyte
quantity: Activity

INSERT INTO results (compound, quantity, observed) VALUES
  ('CCN(CC)CCCN1C(=O)CSC1c1ccc(SC)cc1 (centres undefined)', 'Activity', 'Toxic'),
  ('CS(=O)(=O)c1ccc(C2SCC(=O)N2c2ccccn2)cc1 (centres undefined)', 'Activity', 'Non-Toxic'),
  ('CSc1ccc(C2SCC(=O)N2c2ccc3c(c2)OCO3)cc1 (centres undefined)', 'Activity', 'Non-Toxic'),
  ('CSc1ccc(C2SCC(=O)N2Cc2ccccn2)cc1 (centres undefined)', 'Activity', 'Non-Toxic'),
  ('CSc1ccc(C2SCC(=O)N2CCN2CCCCC2)cc1 (centres undefined)', 'Activity', 'Toxic'),
  ('CSc1ccc(C2SCC(=O)N2c2ccc(SC)cc2)cc1 (centres undefined)', 'Activity', 'Non-Toxic'),
  ('CSc1ccc(N2C(=O)CSC2c2ccc(S(C)(=O)=O)cc2)cc1 (centres undefined)', 'Activity', 'Non-Toxic'),
  ('CCN(CC)CCCN1C(=O)CSC1c1ccc(S(C)(=O)=O)cc1 (centres undefined)', 'Activity', 'Toxic'),
  ('CS(=O)(=O)c1ccc(C2SCC(=O)N2CCN2CCCCC2)cc1 (centres undefined)', 'Activity', 'Non-Toxic'),
  ('CS(=O)(=O)c1ccc(C2SCC(=O)N2Cc2ccccn2)cc1 (centres undefined)', 'Activity', 'Non-Toxic');

Tell me its Activity given CS(=O)(=O)c1ccc(C2SCC(=O)N2CCCN2CCCCC2)cc1 (centres undefined) as the entry.
Non-Toxic

Note Activity for the compound shown: CSc1ccc(C2SCC(=O)N2CCCN2CCCCC2)cc1 (centres undefined)
Toxic

Name the recorded Activity of the compound listed here: CSc1ccc(C2SCC(=O)N2c2ccccn2)cc1 (centres undefined)
Non-Toxic

// Input: CS(=O)(=O)c1ccc(C2SCC(=O)N2c2ccc3c(c2)OCO3)cc1 (centres undefined) . Output its Activity only.
Non-Toxic

----------
species on record: Rattus norvegicus; assay: Cytotoxicity against Wistar rat primary astrocytes assessed as inhibition of cell viability at 100 uM after 72 hrs by MTT assay; assay type: toxicity; conditions: astrocyte
quantity: Activity

INSERT INTO measurements (molecule, observed) VALUES
  ('CSc1ccc(C2SCC(=O)N2c2ccccn2)cc1 (stereo not drawn)', 'Non-Toxic'),
  ('CS(=O)(=O)c1ccc(C2SCC(=O)N2c2ccccn2)cc1 (stereo not drawn)', 'Non-Toxic'),
  ('CS(=O)(=O)c1ccc(C2SCC(=O)N2Cc2ccccn2)cc1 (stereo not drawn)', 'Non-Toxic'),
  ('CCN(CC)CCCN1C(=O)CSC1c1ccc(SC)cc1 (stereo not drawn)', 'Non-Toxic'),
  ('CS(=O)(=O)c1ccc(C2SCC(=O)N2CCCN2CCCCC2)cc1 (stereo not drawn)', 'Non-Toxic'),
  ('CSc1ccc(C2SCC(=O)N2CCN2CCCCC2)cc1 (stereo not drawn)', 'Non-Toxic');

Give a short answer stating reported Activity for CSc1ccc(N2C(=O)CSC2c2ccc(S(C)(=O)=O)cc2)cc1 (stereo not drawn) .
Non-Toxic

Give reported Activity value for CCN(CC)CCCN1C(=O)CSC1c1ccc(S(C)(=O)=O)cc1 (stereo not drawn)
Non-Toxic

The values you see were collected from ChEMBL document CHEMBL3875161.
